Reference source: paper PMC3365763

Target chain: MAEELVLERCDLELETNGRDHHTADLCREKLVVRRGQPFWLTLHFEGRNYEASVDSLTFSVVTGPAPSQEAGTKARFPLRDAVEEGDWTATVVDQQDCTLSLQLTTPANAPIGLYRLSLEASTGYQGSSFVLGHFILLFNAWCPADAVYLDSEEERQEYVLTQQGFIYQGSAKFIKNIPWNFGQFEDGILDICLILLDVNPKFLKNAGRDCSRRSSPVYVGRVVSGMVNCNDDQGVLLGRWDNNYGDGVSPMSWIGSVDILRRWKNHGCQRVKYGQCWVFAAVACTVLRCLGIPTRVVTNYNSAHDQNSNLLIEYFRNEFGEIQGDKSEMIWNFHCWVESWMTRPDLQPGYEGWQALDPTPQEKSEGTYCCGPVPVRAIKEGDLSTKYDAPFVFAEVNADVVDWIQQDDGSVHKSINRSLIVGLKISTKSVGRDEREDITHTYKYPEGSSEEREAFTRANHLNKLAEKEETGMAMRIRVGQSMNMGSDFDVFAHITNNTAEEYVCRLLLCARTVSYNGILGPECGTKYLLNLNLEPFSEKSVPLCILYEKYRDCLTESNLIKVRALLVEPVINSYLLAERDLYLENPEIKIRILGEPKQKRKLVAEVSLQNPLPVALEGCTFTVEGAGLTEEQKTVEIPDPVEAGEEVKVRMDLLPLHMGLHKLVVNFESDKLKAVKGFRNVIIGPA
pIC50: −log10 of the molar value.

Compound | pIC50
Nc1nc2c(ncn2[C@@H]2O[C@H](COP(=O)(O)OP(=O)(O)OP(=O)(O)O)[C@@H](O)[C@H]2O)c(=O)[nH]1 [GTP] | 3.85
